molecular target: Human SIRPα v2 (antigen of the Octet and Biacore affinity measurements) (human) (UniProt P78324); test: SPR (Biacore), 1:1 binding model

{"binder": "hu025.021 (antibody, V domains shown) VH: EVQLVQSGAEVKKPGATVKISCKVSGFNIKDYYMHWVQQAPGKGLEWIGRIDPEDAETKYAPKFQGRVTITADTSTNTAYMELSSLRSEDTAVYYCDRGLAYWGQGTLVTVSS VL: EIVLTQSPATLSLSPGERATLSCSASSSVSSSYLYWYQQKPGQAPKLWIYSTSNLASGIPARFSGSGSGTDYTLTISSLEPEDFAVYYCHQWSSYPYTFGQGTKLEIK", "koff, s⁻¹": 0.0056}
{"binder": "hu025.060 (antibody, V domains shown) VH: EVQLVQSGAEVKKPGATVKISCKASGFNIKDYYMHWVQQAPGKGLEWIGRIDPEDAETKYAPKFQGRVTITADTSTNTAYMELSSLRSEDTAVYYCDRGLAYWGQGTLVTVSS VL: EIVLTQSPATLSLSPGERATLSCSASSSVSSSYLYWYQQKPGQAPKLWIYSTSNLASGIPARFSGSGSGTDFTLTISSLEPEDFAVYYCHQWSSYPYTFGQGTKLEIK", "koff, s⁻¹": 0.00344}
{"binder": "025c (antibody, V domains shown) VH: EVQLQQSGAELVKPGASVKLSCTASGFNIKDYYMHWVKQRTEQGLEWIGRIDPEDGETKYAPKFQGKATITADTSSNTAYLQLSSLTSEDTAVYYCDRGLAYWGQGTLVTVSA VL: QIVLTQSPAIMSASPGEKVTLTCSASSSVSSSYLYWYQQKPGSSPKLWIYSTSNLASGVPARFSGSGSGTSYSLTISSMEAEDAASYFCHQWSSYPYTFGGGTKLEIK", "koff, s⁻¹": 0.00254}
